Taken from patent US20020147129A1.

# measured_on: AT4 receptor of sheep central nervous system (sheep)
# assay_procedure: competition for [125I]Ang IV binding, sheep cerebellar cortical membranes
Where no end group is shown, it is not given here.
Can you tell me IC50 for the items I'm about to list?
Give bare numbers, in nM.

> print(dat)
                          binder  assay.result
1  LVVYPWTQRF [LVV-haemorphin-7]             2

Moving on to another binder below.
According to the records, this binder VYIHPF (also: same id also used for [125I]Ang IV tracer, radioiodinated with chloramine T) [angiotensin IV] displays IC50 of 1.13
